Measured values drawn from patent US9738682B2 for this set.

Tested on: human keratinocytes cell line NCTC2544
Assay: MTT assay with induced oxidative stress (1 mM H2O2)
Type: cell-based
Settings: NCTC-2544, 0.5 μM compound, 16 h pre-treatment, then 1 mM H2O2 for 90 minutes, read-out: % viability (cell viability compared to not stressed control cells)
Structures can show the parent of a compound that is named as a salt.
viability at 0.5 µM for assorted compounds
measurement name: viability at 0.5 µM (%)

INSERT INTO results (compound, measurement_name, recorded_measurement) VALUES
  ('C/C=C/C=C/C=C/C(=O)Oc1cc(/C=C/c2ccc(O)cc2)cc(OC(=O)/C=C/C=C/C=C/C)c1 [resveratrol di-octatrienoate, Resveratrol 3,5-di-octatrienoate]', 'viability at 0.5 µM', 120),
  ('C/C=C/C=C/C=C/C(=O)O [octatrienoic acid arginine salt, Octatrienoic acid arginine salt]', 'viability at 0.5 µM', 91.5);
